The reported numbers originate from paper PMC9490236.

Test: Pharmacokinetics and oral bioavailability of D11.3 in male Swiss albino mice (IV, PO, SQ)
Type: in vivo
Conditions: male, Swiss albino, mouse, plasma; SC 5.00 mg/kg
Where a SMILES comes first, the peptide text is derived from it. [ ]: non-standard residue; d: D form. dNMeI = CC[C@@H](C)[C@@H](NC)C(=O)O; NMeL = CN[C@@H](CC(C)C)C(=O)O
quantity_name: AUC(0-t) (ng·h/mL)
Just the number in ng·h/mL, nothing appended.

Inquiry: Give the reported value of AUC(0-t) for this record: CC[C@@H](C)[C@H]1NC(=O)[C@H]([C@@H](C)CC)NC(=O)[C@H](CC(C)C)N(C)C(=O)[C@H]2CCCN2C(=O)[C@@H]([C@H](C)CC)NC(=O)[C@@H]([C@H](C)CC)N(C)C(=O)[C@H](CC(C)C)NC(=O)[C@H]2CCCN2C(=O)[C@@H]2CCCN2C(=O)[C@H](C(C)C)NC(=O)[C@H]2CCCN2C1=O [Design D11.3] (cyclo(I[dI][dP]VP[dP]L[dNMeI][dI][dP][NMeL]))
Reply text: 2120

====

Test: Caco-2 permeability assay (apical to basolateral)
Type: in vitro ADME, human
Details: Caco-2, Caco_Papp_Average
Where a SMILES comes first, the peptide text is derived from it. [ ]: non-standard residue; d: D form. dNMeI = CC[C@@H](C)[C@@H](NC)C(=O)O; NMeF = CN[C@@H](Cc1ccccc1)C(=O)O; dNMeF = CN[C@H](Cc1ccccc1)C(=O)O; NMeL = CN[C@@H](CC(C)C)C(=O)O; dNMeL = CN[C@H](CC(C)C)C(=O)O; NMeA = CN[C@@H](C)C(=O)O
Below, each entry is listed with its recorded Papp A→B.
Expressed in ×10⁻⁶ cm/s, but write only the number.

Example entries and their recorded answers appear below.
molecule="CC[C@@H](C)[C@H]1NC(=O)[C@H](CC(C)C)NC(=O)[C@@H](CC(C)C)NC(=O)[C@H](C(C)C)NC(=O)[C@@H](Cc2ccccc2)N(C)C(=O)[C@@H]2CCCN2C(=O)[C@@H](CC(C)C)NC(=O)[C@H](CC(C)C)N(C)C(=O)[C@H]2CCCN2C1=O [Design D9.3] (cyclo(L[dI][dP][NMeL][dL]P[dNMeF]V[dL]))" quantity_name="Papp A→B" unit_descriptor="×10⁻⁶ cm/s" val=3.53
molecule="CC[C@@H](C)[C@H]1NC(=O)[C@H]([C@@H](C)CC)NC(=O)[C@H](Cc2ccccc2)N(C)C(=O)[C@H]2CCCN2C(=O)[C@@H]([C@H](C)CC)NC(=O)[C@@H]([C@H](C)CC)N(C)C(=O)[C@H](CC(C)C)NC(=O)[C@H]2CCCN2C(=O)[C@@H]2CCCN2C(=O)[C@H](C(C)C)NC(=O)[C@H]2CCCN2C1=O [Design D11.4] (cyclo(I[dI][dP]VP[dP]L[dNMeI][dI][dP][NMeF]))" quantity_name="Papp A→B" unit_descriptor="×10⁻⁶ cm/s" val=4.99

Please examine the following record next.
Inquiry: Entry CC[C@@H](C)[C@H]1NC(=O)[C@@H](Cc2ccccc2)NC(=O)[C@@H](CC(C)C)NC(=O)[C@@H]2CCCN2C(=O)[C@H]2CCCN2C(=O)[C@H](CC(C)C)NC(=O)[C@H](CC(C)C)NC(=O)[C@@H](CC(C)C)N(C)C(=O)[C@H](C)N(C)C(=O)[C@H]2CCCN2C1=O [Design D10.34] (cyclo([dL][dF][dI][dP][NMeA][dNMeL]LL[dP]P)) needs its Papp A→B filled in; supply it.
Reply text: 15
